B1: glmS ribozyme (parent)
chain: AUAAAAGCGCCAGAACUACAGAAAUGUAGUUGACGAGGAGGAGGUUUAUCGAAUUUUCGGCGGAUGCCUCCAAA

Variants of: B1
Experiment: self-cleavage kobs at 2500 uM GlcN6P; higher = faster cleavage; RNA array
Details: with glucosamine-6-phosphate
This sample holds only a part of the variants without activity.
result.type: self-cleavage kobs at 2500 uM GlcN6P (s⁻¹)
# output: bare number, implied unit s⁻¹

Some solved cases for reference:
{"columns": ["mutant.designation", "self-cleavage kobs at 2500 uM GlcN6P (s⁻¹)"],
 "data": [
  ["U56A U69A", 0.000155],
  ["G40C A53C", 0.0004],
  ["A14G U45A U69A", 0.000801],
  ["G13U C16U A39U A53G", 0.000359],
  ["A42U G43U U46A C70U", "6.44e-05"],
  ["U54A U65A C68G", 0.000194],
  ["C11U C16G", 0.000258],
  ["U47A U56A", 0.00548],
  ["G37A C50G U54C", 0.000123],
  ["C67G U69C", 0.00077]
]}

Prompt line: Tell us which self-cleavage kobs at 2500 uM GlcN6P value is on record for A14C A39C
Response line: 0.000254

Prompt line: Tell us which self-cleavage kobs at 2500 uM GlcN6P value is on record for G32U U55A C71A
Response line: 8.28e-05

Prompt line: Tell us which self-cleavage kobs at 2500 uM GlcN6P value is on record for G41C U54G
Response line: 0.000354

Prompt line: Tell us which self-cleavage kobs at 2500 uM GlcN6P value is on record for U46G C58A
Response line: 3.08e-05

Prompt line: Tell us which self-cleavage kobs at 2500 uM GlcN6P value is on record for U47G C67U
Response line: 0.00125

Prompt line: Tell us which self-cleavage kobs at 2500 uM GlcN6P value is on record for A48G C68G
Response line: 5.41e-05

Prompt line: Tell us which self-cleavage kobs at 2500 uM GlcN6P value is on record for A14C U31C
Response line: 0.00178

Prompt line: Tell us which self-cleavage kobs at 2500 uM GlcN6P value is on record for A48C C68U
Response line: 6.35e-05

Prompt line: Tell us which self-cleavage kobs at 2500 uM GlcN6P value is on record for U30A U46G
Response line: 0.000638

Prompt line: Tell us which self-cleavage kobs at 2500 uM GlcN6P value is on record for U31A C58G A64C C68U
Response line: 8.36e-05

Prompt line: Tell us which self-cleavage kobs at 2500 uM GlcN6P value is on record for G41A U47C
Response line: 4.08e-05

Prompt line: Tell us which self-cleavage kobs at 2500 uM GlcN6P value is on record for A14C A15U
Response line: 0.000148

Prompt line: Tell us which self-cleavage kobs at 2500 uM GlcN6P value is on record for A14U G29U C50G C68U
Response line: 0.000156
